# experimental target: furin, P09958;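 further: purified furin at 1:10 enzyme:substrate in 50 mM HEPES pH 7.5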
# Sequence (P09958 whole entry): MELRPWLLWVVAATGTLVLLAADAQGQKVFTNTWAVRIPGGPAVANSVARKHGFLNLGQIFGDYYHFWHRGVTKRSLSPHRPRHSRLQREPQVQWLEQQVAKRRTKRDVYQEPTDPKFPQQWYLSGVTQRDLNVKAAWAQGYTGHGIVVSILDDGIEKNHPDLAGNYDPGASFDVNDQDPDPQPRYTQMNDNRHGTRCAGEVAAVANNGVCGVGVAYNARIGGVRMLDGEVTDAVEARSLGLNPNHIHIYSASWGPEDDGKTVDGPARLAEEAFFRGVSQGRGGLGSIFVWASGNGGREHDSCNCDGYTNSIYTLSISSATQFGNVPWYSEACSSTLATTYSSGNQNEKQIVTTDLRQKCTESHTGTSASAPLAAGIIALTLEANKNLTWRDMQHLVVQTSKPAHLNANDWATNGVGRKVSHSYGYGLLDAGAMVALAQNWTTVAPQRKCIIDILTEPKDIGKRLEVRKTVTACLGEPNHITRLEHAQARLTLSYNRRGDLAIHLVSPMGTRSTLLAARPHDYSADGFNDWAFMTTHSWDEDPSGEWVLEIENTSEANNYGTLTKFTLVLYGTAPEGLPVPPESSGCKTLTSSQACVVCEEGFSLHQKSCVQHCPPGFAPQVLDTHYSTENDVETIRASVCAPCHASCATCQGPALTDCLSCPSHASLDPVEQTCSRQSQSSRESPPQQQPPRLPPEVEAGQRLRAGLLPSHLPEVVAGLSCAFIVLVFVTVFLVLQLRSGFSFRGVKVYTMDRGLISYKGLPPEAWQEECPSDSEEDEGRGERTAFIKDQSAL
# experiment: furin cleavage Z-score vs untreated control; higher = more cleavage, active = 3.5 or more, inactive = 1 or less, 8 variable residues between constant flanks
# recorded conditions: 30 min
This is one part of the list. The hit rate among all sequences tested is not known here.
Would you mind answering with one of these outcomes? T = active, F = inactive

CAALSRTARAAGNASASA [FS-1510]; T

Now for another entry.
IN: Any idea what this test logged for CASRCGSGPWAGNASASA [HC458] ?
OUT: F
